# experimental.target: human KDR (human, UniProt P35968 20-1356)
# Sequence (P35968 20-1356): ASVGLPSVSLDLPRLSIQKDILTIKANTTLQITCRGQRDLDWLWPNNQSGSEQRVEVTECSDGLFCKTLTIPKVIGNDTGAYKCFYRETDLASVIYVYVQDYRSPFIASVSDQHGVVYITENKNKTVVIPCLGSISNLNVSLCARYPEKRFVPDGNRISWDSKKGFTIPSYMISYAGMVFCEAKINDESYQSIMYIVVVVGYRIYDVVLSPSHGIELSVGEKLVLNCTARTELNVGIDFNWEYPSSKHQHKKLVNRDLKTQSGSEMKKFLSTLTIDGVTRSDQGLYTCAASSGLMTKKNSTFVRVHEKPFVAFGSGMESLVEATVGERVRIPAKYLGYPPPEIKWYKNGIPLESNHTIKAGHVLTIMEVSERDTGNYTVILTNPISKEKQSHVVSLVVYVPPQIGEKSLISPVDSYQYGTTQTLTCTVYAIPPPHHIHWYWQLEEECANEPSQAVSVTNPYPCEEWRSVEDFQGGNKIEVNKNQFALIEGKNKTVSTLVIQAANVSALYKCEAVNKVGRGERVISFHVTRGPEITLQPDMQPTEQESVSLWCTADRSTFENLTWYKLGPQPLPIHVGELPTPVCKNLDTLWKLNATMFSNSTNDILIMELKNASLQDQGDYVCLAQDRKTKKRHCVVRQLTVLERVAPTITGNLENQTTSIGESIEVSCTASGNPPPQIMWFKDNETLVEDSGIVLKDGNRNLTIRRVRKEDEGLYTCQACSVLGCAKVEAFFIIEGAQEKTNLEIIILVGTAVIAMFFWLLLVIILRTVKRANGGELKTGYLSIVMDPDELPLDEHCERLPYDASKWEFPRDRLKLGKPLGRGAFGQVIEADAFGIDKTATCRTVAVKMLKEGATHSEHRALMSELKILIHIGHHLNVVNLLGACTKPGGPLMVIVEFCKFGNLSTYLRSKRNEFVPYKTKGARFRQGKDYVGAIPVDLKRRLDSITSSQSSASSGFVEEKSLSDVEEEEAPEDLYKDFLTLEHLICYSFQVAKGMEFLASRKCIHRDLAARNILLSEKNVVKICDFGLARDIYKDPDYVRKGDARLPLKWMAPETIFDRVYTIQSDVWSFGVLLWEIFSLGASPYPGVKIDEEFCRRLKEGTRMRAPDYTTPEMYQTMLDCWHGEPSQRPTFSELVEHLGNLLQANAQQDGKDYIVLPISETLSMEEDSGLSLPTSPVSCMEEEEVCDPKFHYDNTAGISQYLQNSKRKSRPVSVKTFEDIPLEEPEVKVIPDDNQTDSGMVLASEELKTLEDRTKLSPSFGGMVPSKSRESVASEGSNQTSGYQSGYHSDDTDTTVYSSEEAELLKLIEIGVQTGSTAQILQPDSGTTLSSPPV
# protocol.text: cell-based or functional assay
For each record, check the reported KDR tyrosine phosphorylation in HUVEC, EC50 (nM), N = 2: if it is below 2 nM write 1, else write -1.

33B1 (antibody, V domains shown, Fully human monoclonal antibody from a XenoMouse hybridoma (IgG2 or IgG4 strain), purified) VH: EVQLVESGGGLVKPGGSLRLSCAASGFTFSSYTMNWVRQAPGKGLEWVSFIDSRSSYIYYADSVKGRFTISRDNAKNSLYLQMNSLRAEDTAVYYCSKDDWFEELWGQGTLVTVSS VL: DIQMTQSPSSLSASVGDRVTITCRASQGIRNDLGWYQQKPGKAPKRLIYATSSLQSGVPSRFSGSGSGTEFTLTISSLQPEDFATYYCLHHNSFPWTFGQGTKVEIK
1

Determine whether this binder shows KDR tyrosine phosphorylation in HUVEC, EC50 (nM), N = 2 lower than 2 nM (ties excluded): 31E11 (antibody, V domains shown, Fully human monoclonal antibody from a XenoMouse hybridoma (IgG2 or IgG4 strain), purified) VH: QVQLVESGGGLVKPGGSLRLSCAASGFTFSDYYMSWIRQAPGKGLEWVSYISISGSTIYYADSVKGRFTISRDNAKNSLYLQMNSLRAEDTAVYYCARDDFWSGYYFNWFDPWGQGTLVTVSS VL: DIQMTQSPSSLSASVGDRVTITCRANQTISTFLNWYQQNPGKAPKLLIYAASSLQSGVPSRFSGSGSGTDFTLTISSLQPEDFATYYCQQTYIIPLTFGGGTKVEIK
1
